- Test system: WPMY1-ACTB-RAB5A
- method summary: phenotypically active (imaging signature differs from DMSO and reproducible) at any of 0.3-9 uM (binary (1 = active, 0 = inactive)); higher = active
- run conditions: treatment time: 24 h
# phenotypically active listing for each entry below
No unit in the answer, please; the number alone is enough.

These solved cases illustrate the format of a correct answer.
Value of measured phenotypically active for the entry CC(=O)/N=c1/sc(S(N)(=O)=O)nn1C [methazolamide] : 0

In plain terms, CN(C)C(=O)C(CCN1CCC(O)(c2ccc(Cl)cc2)CC1)(c1ccccc1)c1ccccc1 [loperamide] has a documented phenotypically active of 1

Note: attention shifts to another entry.
For record `C#CCN[C@@H]1CCc2ccccc21` the listed phenotypically active is 0

----------
Readings of lowest phenotypically active concentration for the listed compounds
- System: A549-GM130-SQSTM1
- method summary: lowest phenotypically active concentration; higher = less potent
- run conditions: treatment time: 24 h
Numbers only here, please. The scale is µM.

lowest phenotypically active concentration reported for this compound `O=S(=O)(c1ccccc1)N(CC(F)(F)F)c1ccc(C(O)(C(F)(F)F)C(F)(F)F)cc1` : 9

Entry under test: CC(CN1c2ccccc2Sc2ccccc21)N(C)C (centres undefined) [promethazine] . Its lowest phenotypically active concentration was 9

Form field lowest phenotypically active concentration, entry O=C(O)C[C@H](O)C[C@H](O)/C=C/c1c(C2CC2)nc2ccccc2c1-c1ccc(F)cc1 [Pitavastatin calcium] : 9

----------
- System: HepG2-ACTB-RAB5A
- method summary: phenotypically active (imaging signature differs from DMSO and reproducible) at any of 0.3-9 uM (binary (1 = active, 0 = inactive)); higher = active
- run conditions: treatment time: 24 h
Counter-ions that a name gives are not always drawn.
Tick one outcome: active, inactive

Assay outcome for O=S(c1ccccc1)c1ccc2nnnn2n1 (stereo not given) : what was it?
inactive

Next:
Test call, this compound: `C[C@H]1[C@H]2CC[C@H]3[C@@H]4CC=C5C[C@@H](N(C)C)CC[C@]5(C)[C@H]4CC[C@]23CN1C`
active

Which outcome was assigned to CN(C)CC(=O)Nc1ccc2[nH]c(=O)c3ccccc3c2c1 [PJ 34 hydrochloride] in this test?
active

Please let me know the test result on file for CCN(Cc1ccncc1)C(=O)C(CO)c1ccccc1 (stereo not given) [tropicamide] .
inactive

Assay result, entry COc1ccc2c3c([nH]c2c1)[C@H]1C[C@H]2[C@H](C[C@@H](O)[C@H](OC)[C@H]2C(=O)O)CN1CC3 [Reserpinic acid hydrochloride] — outcome?
inactive

----------
- Tested on: HepG2-ACTB-RAB5A
- method summary: phenotypically active (imaging signature differs from DMSO and reproducible) at any of 0.3-9 uM (binary (1 = active, 0 = inactive)); higher = active
- run conditions: treatment time: 24 h
Reply using exactly one outcome from active, inactive

Illustrative cases are given below, each with its answer.
Hi team, can someone confirm the assay call for NC(=O)c1cccc(N)c1 [3-Aminobenzamide] ?
inactive

Given COc1ccc(C(C)=O)c(O)c1 [2'-Hydroxy-4'-Methoxyacetophenone] , state the outcome it received in this test.
inactive

***
Lab log entry: `O=C1c2ccccc2-c2nc3nonc3nc21` — outcome as called in the assay?
active

Entry `CCCc1cc(C)n(C)c(=O)c1CN(C)C(=O)c1cc(-c2ccc(N3CCN(C(C)C)CC3)nc2)cc2c1cnn2C(C)C` : call = ?
active

Which outcome did this test record for the compound CC#CC(=O)N1CCC[C@H]1c1nc(-c2ccc(C(=O)Nc3ccccn3)cc2)c2c(N)nccn12 [acalabrutinib] ?
inactive

Hey, what did the test say about O=C(OC12CC3CC(CC(C3)C1)C2)c1ccc(NCc2cc(O)ccc2O)cc1 [Adaphostin] ?
active

What classification did O=C(c1ccccc1)c1ccc2n1CCC2C(=O)O (stereo not drawn) [ketorolac] end up with in this test?
inactive
